system: KHYG-1 (IL-2 2.5 ng/mL); experiment: percent inhibition of viability; higher = more inhibition; settings: 72 h; 0.1 nM;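 also: normalised to DMSO-only wells as negative and benzethonium chloride as positive control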
Each record here notes measured percent inhibition of viability.

Compound | Unit Abbreviation | percent inhibition of viability
CN1CCC(COc2cnc(-c3cccc(Cn4nc(-c5cccc(C#N)c5)ccc4=O)c3)nc2)CC1 (max concentration tested 1000 nM) | % | 0.03
Cn1cnc2c(F)c(Nc3ccc(Br)cc3F)c(C(=O)NOCCO)cc21 [Binimetinib] (max concentration tested 1000 nM) | % | -8.34
Oc1ccc2c(c1)CC[C@H](c1ccccc1)[C@@H]2c1ccc(OCCN2CCCC2)cc1 [Lasofoxifene] (max concentration tested 1000 nM) | % | -2.09
Cc1ccc(F)c(NC(=O)Nc2ccc(-c3cccc4[nH]nc(N)c34)cc2)c1 [Linifanib] (max concentration tested 1000 nM) | % | -6.67
Nc1nc(Cl)nc2c1ncn2[C@H]1C[C@H](O)[C@@H](CO)O1 [Cladribine] (max concentration tested 1000 nM) | % | -2.1
C=CC(=O)N1CCC[C@@H](n2nc(-c3ccc(Oc4ccccc4)cc3)c3c(N)ncnc32)C1 [Ibrutinib] (max concentration tested 1000 nM) | % | -6.77
CC[C@H](NC(=O)[C@H](C)NC)C(=O)N1C[C@@H](O)C[C@H]1Cc1c(-c2[nH]c3cc(F)ccc3c2C[C@@H]2C[C@H](O)CN2C(=O)[C@H](CC)NC(=O)[C@H](C)NC)[nH]c2cc(F)ccc12 [Birinapant] (max concentration tested 1000 nM) | % | -2.97
